Target: Farnesyl protein transferase (FPT) (Homo sapiens, UniProt P49354+P49356)
Construct: partially purified from human placenta by ammonium sulphate fractionation
Assay: Farnesyl protein transferase (FPT) inhibition, tritiated farnesyl pyrophosphate incorporation into ras-CVIM
Settings: FPT partially purified from human placenta; 300 nM tritiated farnesyl pyrophosphate, 120 nM ras-CVIM, 20 minutes at 37°
Measured attribute: IC50

Query :: What does the record list as IC50 for C=CCOC(=O)c1cc(NC(=O)[C@@H]2C[C@H](SC(C)=O)CN2C(=O)OCc2ccc([N+](=O)[O-])cc2)cc(C(=O)N(C)OC)c1 ?
Result :: ~500 nM
